- system: EGFR (Homo sapiens)
- Construct: host or cells: A431
- Sequence (P00533 25-1210): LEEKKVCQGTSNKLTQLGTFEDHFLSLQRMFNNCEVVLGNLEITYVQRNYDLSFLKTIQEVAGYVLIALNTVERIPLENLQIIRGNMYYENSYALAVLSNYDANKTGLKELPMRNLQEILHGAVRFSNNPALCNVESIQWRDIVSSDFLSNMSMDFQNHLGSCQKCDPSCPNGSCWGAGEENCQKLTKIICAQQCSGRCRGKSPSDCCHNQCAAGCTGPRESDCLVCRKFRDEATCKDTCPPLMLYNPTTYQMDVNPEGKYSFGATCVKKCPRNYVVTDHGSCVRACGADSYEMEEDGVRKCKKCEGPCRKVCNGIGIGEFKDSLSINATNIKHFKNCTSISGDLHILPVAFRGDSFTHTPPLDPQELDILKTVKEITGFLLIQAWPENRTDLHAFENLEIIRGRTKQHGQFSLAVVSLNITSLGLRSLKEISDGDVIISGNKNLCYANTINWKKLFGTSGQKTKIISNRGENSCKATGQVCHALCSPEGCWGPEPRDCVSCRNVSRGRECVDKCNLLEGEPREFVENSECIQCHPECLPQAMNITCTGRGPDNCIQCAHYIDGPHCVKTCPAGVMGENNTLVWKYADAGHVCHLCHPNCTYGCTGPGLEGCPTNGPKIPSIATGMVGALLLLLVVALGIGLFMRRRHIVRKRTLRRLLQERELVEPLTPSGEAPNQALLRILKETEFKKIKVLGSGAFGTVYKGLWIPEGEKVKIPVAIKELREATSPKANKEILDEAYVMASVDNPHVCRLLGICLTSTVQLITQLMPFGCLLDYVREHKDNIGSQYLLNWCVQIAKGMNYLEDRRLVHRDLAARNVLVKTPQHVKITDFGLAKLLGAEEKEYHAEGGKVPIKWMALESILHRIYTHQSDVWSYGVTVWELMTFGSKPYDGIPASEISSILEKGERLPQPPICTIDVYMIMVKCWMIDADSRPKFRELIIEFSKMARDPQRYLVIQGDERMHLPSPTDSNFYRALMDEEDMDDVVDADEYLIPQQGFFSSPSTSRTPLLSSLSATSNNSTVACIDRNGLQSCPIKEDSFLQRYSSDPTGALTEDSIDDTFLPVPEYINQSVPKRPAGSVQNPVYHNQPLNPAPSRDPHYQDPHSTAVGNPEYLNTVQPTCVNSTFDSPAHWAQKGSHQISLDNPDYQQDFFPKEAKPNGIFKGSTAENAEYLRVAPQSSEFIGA
- assay.overview: EGFR in-cell Western (ICW) screening protocol (EGFR inhibition assay)
- Type: cell-based
- Set-up: unit not given here
- cond: ICW assay, average of runs 1 and 2
Where a name gives a salt, the structure may show the parent alone.
Mark Y for reported ICW Avg of 30 or greater; mark N for anything smaller.

>  <compound>
CCOc1ccc2nc(Nc3nc(C)cc(-c4ccccc4)n3)nc(C)c2c1 [12688 + TFA]

>  <group.label>
Y

$$$$
>  <compound>
CCc1ccc2nc(Nc3nc(C)c4c(n3)CCCC4)nc(C)c2c1 [compound 12213]

>  <group.label>
N

$$$$
>  <compound>
CCCc1c(C)nc(Nc2nc(C)c3cc(C)c(C)cc3n2)[nH]c1=O [12614 + TFA]

>  <group.label>
N

$$$$
>  <compound>
CCc1c(C)nc(Nc2nc(C)c3cccc(OC)c3n2)[nH]c1=O [compound 12613]

>  <group.label>
Y

$$$$
>  <compound>
CCCCc1c(C)nc(Nc2nc(C)c3ccccc3n2)[nH]c1=O [12743 + TFA]

>  <group.label>
N

$$$$

These entries and their values trace back to patent US20140179681A1.
